Entry source: patent US20150266850A1

For each entry below, report its Test A disease control rating value.
- Tested on: Erysiphe graminis f. sp. tritici
- methodSummary: Test A: wheat powdery mildew, preventive spray on wheat seedlings, visual disease rating
- Type: in vivo
- conditionDescription: 40 ppm (*), 100 = 100% disease control
Marks after values point to notes of the source that are not given here.

[Q] Which measured Test A disease control rating value corresponds to COC(=O)NCc1cc(-n2ccc(-c3ccc(F)cc3C)n2)ccc1C ?
[A] 95* %

[Q] Which measured Test A disease control rating value corresponds to CCCOc1ccc(-n2ccc(-c3ccc(C)c(CNC(=O)OC)c3)n2)c(C)c1 ?
[A] 98* %

[Q] Which measured Test A disease control rating value corresponds to COC(=O)NCc1cc(-c2ccn(-c3ccc(Cl)cc3[N+](=O)[O-])n2)ccc1C ?
[A] 26* %

[Q] Which measured Test A disease control rating value corresponds to COC(=O)NCc1cc(-n2ncc(-c3ccc(Br)cc3OC)n2)ccc1C ?
[A] 99* %

[Q] Which measured Test A disease control rating value corresponds to CCOc1ccc(-c2cnn(-c3ccc(C)c(CNC(=O)OC)c3)n2)c(C)c1 ?
[A] 99* %

###

For each entry below, report its melting point value.

[Q] Which measured melting point value corresponds to COC(=O)NCc1cc(-c2ncn(-c3ccc(OC)cc3OC)n2)ccc1C ?
[A] 174 to 177 °C

[Q] Which measured melting point value corresponds to COC(=O)NCc1cc(-n2ccc(-c3ccc(OC)cc3C)n2)ccc1C ?
[A] 97 to 99 °C

[Q] Which measured melting point value corresponds to COC(=O)NCc1cc(-c2ncn(-c3ccc(Cl)cc3Cl)n2)ccc1C ?
[A] 152 to 155 °C

[Q] Which measured melting point value corresponds to COC(=O)NCc1cc(-n2ccc(-c3ccc(Cl)cc3OC)n2)ccc1C ?
[A] 126 to 127 °C

[Q] Which measured melting point value corresponds to COC(=O)NCc1cc(-c2ncn(-c3ccc(OC)cc3F)n2)ccc1C ?
[A] 164 to 166 °C

[Q] Which measured melting point value corresponds to COC(=O)NCc1cc(-n2ccc(-c3ccc(Cl)cc3Cl)n2)ccc1C ?
[A] 101 to 103 °C

[Q] Which measured melting point value corresponds to COC(=O)NCc1cc(-c2ncn(-c3ccc(OC)cc3Cl)n2)ccc1C ?
[A] 145 to 148 °C

[Q] Which measured melting point value corresponds to COC(=O)NCc1cc(-c2ncn(-c3ccc(F)cc3F)n2)ccc1C ?
[A] 156 to 159 °C

[Q] Which measured melting point value corresponds to COC(=O)NCc1cc(-c2ncn(-c3ccc(C)cc3C)n2)ccc1C ?
[A] 148 to 151 °C

[Q] Which measured melting point value corresponds to COC(=O)NCc1cc(-n2ncc(-c3ccc(OC)cc3OC)n2)ccc1C ?
[A] 132 to 135 °C

[Q] Which measured melting point value corresponds to COC(=O)NCc1cc(-c2ccn(-c3ccc(OC)cc3C)n2)ccc1C ?
[A] 117 to 120 °C

###

- Tested on: Puccinia recondita f sp. tritici
- methodSummary: Test B: wheat leaf rust, preventive spray on wheat seedlings, visual disease rating
- Format: in vivo
- conditionDescription: 200 ppm, 100 = 100% disease control
measure: Test B disease control rating (%)
Enter your answer as a number in %; do not include the unit.

[Q] Which measured Test B disease control rating value corresponds to COC(=O)NCc1cc(-c2ccn(-c3ccc(C)cc3OC)n2)ccc1C ?
[A] 100

[Q] Which measured Test B disease control rating value corresponds to COC(=O)NCc1cc(-n2ncc(-c3ccc(C)cc3OC)n2)ccc1C ?
[A] 100

[Q] Which measured Test B disease control rating value corresponds to COC(=O)NCc1cc(-c2ccn(-c3ccc(OC)cc3SC)n2)ccc1C ?
[A] 100

[Q] Which measured Test B disease control rating value corresponds to COC(=O)NCc1cc(-c2ccn(-c3ccc(N)cc3Cl)n2)ccc1C ?
[A] 98
